- Assay system: ROCK-II (h) (Homo sapiens, UniProt O75116)
- Sequence (O75116 whole entry): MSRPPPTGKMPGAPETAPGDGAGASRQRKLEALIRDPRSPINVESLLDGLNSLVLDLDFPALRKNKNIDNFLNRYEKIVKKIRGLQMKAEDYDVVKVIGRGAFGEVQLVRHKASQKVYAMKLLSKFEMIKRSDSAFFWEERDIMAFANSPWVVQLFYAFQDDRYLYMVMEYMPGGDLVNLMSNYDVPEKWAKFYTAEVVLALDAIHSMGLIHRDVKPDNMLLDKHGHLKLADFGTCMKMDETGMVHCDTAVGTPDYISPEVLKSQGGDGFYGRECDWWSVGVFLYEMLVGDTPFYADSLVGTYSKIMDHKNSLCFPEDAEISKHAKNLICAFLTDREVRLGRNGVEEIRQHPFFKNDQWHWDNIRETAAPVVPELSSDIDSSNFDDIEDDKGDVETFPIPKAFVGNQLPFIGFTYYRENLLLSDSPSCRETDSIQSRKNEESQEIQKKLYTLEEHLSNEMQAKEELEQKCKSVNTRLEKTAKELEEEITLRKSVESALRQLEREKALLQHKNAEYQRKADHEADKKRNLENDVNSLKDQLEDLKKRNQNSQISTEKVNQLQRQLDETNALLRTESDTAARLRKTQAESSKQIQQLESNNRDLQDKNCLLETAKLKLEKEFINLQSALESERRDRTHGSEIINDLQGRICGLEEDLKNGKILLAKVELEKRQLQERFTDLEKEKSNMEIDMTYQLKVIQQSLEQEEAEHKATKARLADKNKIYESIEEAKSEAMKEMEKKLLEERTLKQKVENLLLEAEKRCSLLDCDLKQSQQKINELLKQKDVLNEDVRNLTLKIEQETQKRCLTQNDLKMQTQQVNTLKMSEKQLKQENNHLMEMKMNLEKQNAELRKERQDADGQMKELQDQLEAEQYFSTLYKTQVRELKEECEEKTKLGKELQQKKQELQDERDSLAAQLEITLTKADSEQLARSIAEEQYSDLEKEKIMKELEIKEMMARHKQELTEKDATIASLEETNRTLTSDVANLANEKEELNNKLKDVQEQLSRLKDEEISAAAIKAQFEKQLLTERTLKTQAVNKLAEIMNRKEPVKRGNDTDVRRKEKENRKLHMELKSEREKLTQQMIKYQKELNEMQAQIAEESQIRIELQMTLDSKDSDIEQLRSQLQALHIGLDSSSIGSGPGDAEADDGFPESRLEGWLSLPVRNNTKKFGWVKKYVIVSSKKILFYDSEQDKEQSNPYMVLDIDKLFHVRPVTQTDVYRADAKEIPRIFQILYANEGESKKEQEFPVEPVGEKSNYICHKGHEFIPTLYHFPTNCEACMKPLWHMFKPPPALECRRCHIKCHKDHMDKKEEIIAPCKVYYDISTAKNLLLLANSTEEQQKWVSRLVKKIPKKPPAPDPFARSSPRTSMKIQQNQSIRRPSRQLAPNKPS
- Assay text: Kinase Profiling Assay
- Assay type: biochemical
- Condition info: 100 μM
Please go through the items and note down their % activity.
Give bare numbers, in %.

Examples with their reported % activity follow.
[
  {
    "Macromolecule sequence": "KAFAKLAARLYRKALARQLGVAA [MMI-0400]",
    "Assay system": "ROCK-II (h) (Homo sapiens, UniProt O75116)",
    "Unit spec": "%",
    "% activity": 77
  },
  {
    "Macromolecule sequence": "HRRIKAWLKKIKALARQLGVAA (Mammalian) [MMI-0500]",
    "Assay system": "ROCK-II (h) (Homo sapiens, UniProt O75116)",
    "Unit spec": "%",
    "% activity": 2
  },
  {
    "Macromolecule sequence": "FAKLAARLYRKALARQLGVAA [MMI-0300]",
    "Assay system": "ROCK-II (h) (Homo sapiens, UniProt O75116)",
    "Unit spec": "%",
    "% activity": 74
  }
]

Here is another sequence to look at.
Look at this sequence and give its reported % activity. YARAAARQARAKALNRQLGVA (Mammalian) [MMI-0200]
85
